- Test system: Oral Tumor Cells (SCC9, SCC4)
- assay protocol: MTT cell viability assay, average of OSCC lines SCC9 and SCC4
- Type: cell-based, human
property measured: pIC50
By convention, pIC50 is the negative base-10 log of a molar concentration.

Consider the molecule N.N.O=C([O-])C1(C(=O)[O-])CCC1.[Pt+2] [Carboplatin, reference compound] and give its measured pIC50. 3.72

---

property measured: melting point

Give its melting point value. Item: COc1cc(C(=O)NCc2ccc(O)cc2)cc(OC)c1OC 227 to 229 °C

Request the reported melting point associated with CCCCNC(=O)c1cc(OC)c(OC)c(OC)c1 [Compound 13, N-Butyl-3,4,5–trimethoxybenzamide] 115 to 116 °C

Which melting point value belongs to COc1cc(C(=O)NCc2ccc(Cl)cc2)cc(OC)c1OC ? 157 to 158 °C

Looking for the measured melting point of COc1cc(C(=O)NCc2ccc(F)cc2)cc(OC)c1OC , can you help? 131 to 132 °C

Value lookup for melting point; key = COc1cc(C(=O)NCc2ccccc2)cc(OC)c1OC [Compound 17, N-Benzyl-3,4,5–trimethoxybenzamide] 138 to 139 °C

Which melting point value is on record for COc1cc(C(=O)OC(c2ccccc2)c2ccccc2)cc(OC)c1OC [Compound 12, Diphenyl 3,4,5–trimethoxybenzoate] ? 57 to 58 °C

Fill in the blank: the reported melting point of COc1cc(C(=O)OCc2ccc(Br)cc2)cc(OC)c1OC [Compound 10, 4-Bromo-benzyl 3,4,5–trimethoxybenzoate] is ____. 104 to 105 °C

I have this compound here, COc1cc(C(=O)NC2CCCCC2)cc(OC)c1OC [Compound 15, N-Cyclohexyl-3,4,5–trimethoxybenzamide] , and I need its recorded melting point. 179 to 180 °C
